- tested_system: alpha1 adrenoceptor (Mus musculus, UniProt P97714+P97717+P97718)
- protocol_description: Displacement of [3H]prazosin from alpha1 adrenoceptor in C57BL/6 mouse hippocampal homogenates assessed as remaining receptor bound [3H]prazosin levels at 0.0001 uM after 40 mins by liquid scintillation counting method relative to control
- assay_conditions: probe [3H]prazosin, read-out: Activity
# activity at 40 min, 0.0001 µM listing for each entry below
measured_endpoint: activity at 40 min, 0.0001 µM (%)

[[record]]
given_smiles = "CCN1/C(=C/c2ccc3cc(I)ccc3[n+]2CC)C=Cc2ccccc21.[I-]"
reported_measurement = 100

[[record]]
given_smiles = "CCN1/C(=C/c2ccc3ccccc3[n+]2CC)C=Cc2ccccc21.[I-]"
reported_measurement = 100

[[record]]
given_smiles = "CC(C)[n+]1ccc(/C=C2/C=Cc3ccccc3N2C)c2ccccc21.O=C([O-])C(F)(F)F"
reported_measurement = 100


---

- tested_system: alpha1 adrenoceptor (Mus musculus, UniProt P97714+P97717+P97718)
- protocol_description: Displacement of [3H]prazosin from alpha1 adrenoceptor in C57BL/6 mouse hippocampal homogenates assessed as remaining receptor bound [3H]prazosin levels at 1 uM after 40 mins by liquid scintillation counting method relative to control
- assay_conditions: probe [3H]prazosin, read-out: Activity
measured_endpoint: activity at 40 min, 1 µM (%)

[[record]]
given_smiles = "CCN1/C(=C/c2ccc3ccccc3[n+]2CC)C=Cc2ccccc21.[I-]"
unit_name = "%"
reported_measurement = 16.6

[[record]]
given_smiles = "CCN1/C(=C/c2ccc3cc(OC)ccc3[n+]2CC)C=Cc2ccccc21.[I-]"
unit_name = "%"
reported_measurement = 23

[[record]]
given_smiles = "CCN1/C(=C/c2ccc3cc(I)ccc3[n+]2CC)C=Cc2ccccc21.[I-]"
unit_name = "%"
reported_measurement = 39.3

[[record]]
given_smiles = "Cc1ccnc2ccccc12"
unit_name = "%"
reported_measurement = 8.3

[[record]]
given_smiles = "CCN1/C(=C/c2ccc3cc(Br)ccc3[n+]2CC)C=Cc2ccccc21.[I-]"
unit_name = "%"
reported_measurement = 43.3

[[record]]
given_smiles = "CC(C)[n+]1ccc(/C=C2/C=Cc3ccccc3N2C)c2ccccc21.O=C([O-])C(F)(F)F"
unit_name = "%"
reported_measurement = 52.3


---

- tested_system: alpha1 adrenoceptor (Mus musculus, UniProt P97714+P97717+P97718)
- protocol_description: Displacement of [3H]prazosin from alpha1 adrenoceptor in C57BL/6 mouse hippocampal homogenates assessed as remaining receptor bound [3H]prazosin levels at 100 uM after 40 mins by liquid scintillation counting method relative to control
- assay_conditions: probe [3H]prazosin, read-out: Activity
measured_endpoint: activity at 40 min, 100 µM (%)

[[record]]
given_smiles = "CCN1/C(=C/c2ccc3cc(I)ccc3[n+]2CC)C=Cc2ccccc21.[I-]"
measured_endpoint = "activity at 40 min, 100 µM"
reported_measurement = 12.3

[[record]]
given_smiles = "Cc1ccnc2ccccc12"
measured_endpoint = "activity at 40 min, 100 µM"
reported_measurement = 0

[[record]]
given_smiles = "CC(C)[n+]1ccc(/C=C2/C=Cc3ccccc3N2C)c2ccccc21.O=C([O-])C(F)(F)F"
measured_endpoint = "activity at 40 min, 100 µM"
reported_measurement = 3.3

[[record]]
given_smiles = "CCN1/C(=C/c2ccc3cc(Br)ccc3[n+]2CC)C=Cc2ccccc21.[I-]"
measured_endpoint = "activity at 40 min, 100 µM"
reported_measurement = 0

[[record]]
given_smiles = "CCN1/C(=C/c2ccc3ccccc3[n+]2CC)C=Cc2ccccc21.[I-]"
measured_endpoint = "activity at 40 min, 100 µM"
reported_measurement = 13.3

[[record]]
given_smiles = "CCN1/C(=C/c2ccc3cc(OC)ccc3[n+]2CC)C=Cc2ccccc21.[I-]"
measured_endpoint = "activity at 40 min, 100 µM"
reported_measurement = 1.3


These entries and their values trace back to ChEMBL document CHEMBL4118073.
